# measurementDescription: DP IV-catalyzed truncation of peptides, half-life by MALDI-TOF MS
# Format: biochemical
# testSettings: bioactive peptides which are substrates for DP IV; read-out: Truncation half life
Where a SMILES comes first, the peptide text is derived from it.
experimentalReadout: half-life

query: Query: half-life; subject: C[C@H](NC(=O)[C@@H](N)Cc1ccc(O)cc1)C(=O)N[C@@H](CCC(=O)O)C(=O)NCC(=O)N[C@H](C(=O)N[C@@H](Cc1ccccc1)C(=O)O)[C@@H](C)O [GIP1-6, YAEGTF] (H-YAEGTF-OH; N-terminus and C-terminus assumed)
result: < 7.5 min

* * *

# targetUnderTest: recombinant human DP IV, mutation W629A (Homo sapiens, UniProt P27487, W629A)
# Sequence (P27487 37-766 W629A): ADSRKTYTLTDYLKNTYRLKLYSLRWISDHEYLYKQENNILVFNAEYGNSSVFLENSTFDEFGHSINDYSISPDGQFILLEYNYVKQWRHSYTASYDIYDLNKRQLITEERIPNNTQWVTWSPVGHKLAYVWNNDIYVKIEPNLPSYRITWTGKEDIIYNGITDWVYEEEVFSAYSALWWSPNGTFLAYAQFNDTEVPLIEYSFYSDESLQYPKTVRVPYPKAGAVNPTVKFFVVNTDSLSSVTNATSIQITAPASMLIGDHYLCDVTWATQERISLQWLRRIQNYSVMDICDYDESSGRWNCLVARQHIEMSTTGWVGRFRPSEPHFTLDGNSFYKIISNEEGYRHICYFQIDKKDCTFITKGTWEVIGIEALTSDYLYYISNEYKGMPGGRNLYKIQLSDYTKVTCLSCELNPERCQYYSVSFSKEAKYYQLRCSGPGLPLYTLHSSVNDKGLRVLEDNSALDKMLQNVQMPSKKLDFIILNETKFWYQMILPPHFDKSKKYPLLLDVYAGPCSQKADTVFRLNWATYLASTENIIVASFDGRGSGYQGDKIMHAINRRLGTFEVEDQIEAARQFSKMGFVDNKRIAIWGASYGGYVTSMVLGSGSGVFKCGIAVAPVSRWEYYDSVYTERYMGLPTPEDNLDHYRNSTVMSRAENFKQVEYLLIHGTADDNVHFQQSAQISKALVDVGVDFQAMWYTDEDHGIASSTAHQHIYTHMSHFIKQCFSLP
# measurementDescription: Ki in competition to standard substrate GP-4NA
# Type: biochemical
# Parameters: His6 (N); made in house; host or cells: Pichia pastoris X-33 (vector pPICαC, secreted)
# testSettings: mu 16 DP IV (W629A); competition to GP-4NA; read-out: Ki
experimentalReadout: Ki

query: Item CC(C)C[C@H](N)C(=O)N1CCSC1 has what recorded Ki?
result: 0.0657 µM

* * *

# measurementDescription: DP IV-catalyzed truncation of peptides, half-life by MALDI-TOF MS
# Format: biochemical
Where a SMILES comes first, the peptide text is derived from it.
experimentalReadout: half-life (h)
Kindly answer with a numeric value in h, unit omitted.

query: State the recorded half-life for this entry: C[C@@H](O)[C@H](NC(=O)CNC(=O)[C@H](CCC(=O)O)NC(=O)[C@H](CO)NC(=O)[C@@H](N)Cc1ccc(O)cc1)C(=O)N[C@@H](Cc1ccccc1)C(=O)O [S^2GIP1-6] (H-YSEGTF-OH; N-terminus and C-terminus assumed)
result: 1.32
